Field Ki: reported value for Carbonic anhydrase 15 (Mus musculus); entries drawn from several documents.
# tested.on: Carbonic anhydrase 15 (Mus musculus)
# Sequence (Q99N23 whole entry): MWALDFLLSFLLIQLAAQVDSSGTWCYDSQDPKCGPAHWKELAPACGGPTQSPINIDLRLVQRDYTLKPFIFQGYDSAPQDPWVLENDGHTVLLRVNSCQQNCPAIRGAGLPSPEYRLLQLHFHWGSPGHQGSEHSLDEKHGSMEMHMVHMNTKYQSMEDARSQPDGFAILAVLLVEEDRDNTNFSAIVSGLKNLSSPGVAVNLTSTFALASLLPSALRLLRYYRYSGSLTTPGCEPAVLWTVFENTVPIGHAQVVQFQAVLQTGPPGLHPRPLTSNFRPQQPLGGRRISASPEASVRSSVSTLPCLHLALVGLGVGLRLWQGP
Answers are plain numbers, in µM.

- NNc1ccc(S(N)(=O)=O)cc1: 9.54
- NCCCCCN: 0.65
- O=C(O)c1cc2ccccc2oc1=O: 5.6
- Nc1nnc(S(N)(=O)=O)s1: 0.048
- Nc1cc(Cl)c(S(N)(=O)=O)cc1S(N)(=O)=O: 0.757
- Nc1ccc(S(N)(=O)=O)cc1F: 0.079
- Cn1nc(S(N)(=O)=O)sc1=N: 0.049
- NCCNCCCNCCN: 66

Hi team, please reply with Ki for each item in this list.
1. NCCCCNCCCN
2. Oc1c(I)cc(Cl)c2cccnc12
3. COc1ccc(-c2c(N)oc3ccc(Cl)cc3c2=O)cc1
4. Nc1ccc(S(N)(=O)=O)cc1Cl
5. CC(C)C[C@H](NC(=O)[C@H](Cc1ccccc1)NC(=O)c1cnccn1)B(O)O
6. Cc1cc(C)[n+](CCc2ccc(S(N)(=O)=O)cc2)c(C)c1
7. COc1cc(/C=C/C(=O)CC(=O)/C=C/c2ccc(O)c(OC)c2)ccc1O

Result:
1. 10
2. 2.33
3. 1.65
4. 0.062
5. 2.68
6. 0.034
7. 5.09

Hi team, please reply with Ki for each item in this list.
1. Nc1oc2ccc(Cl)cc2c(=O)c1-c1ccc(Cl)cc1
2. Oc1cc(F)ccc1F
3. NNc1ccccc1S(N)(=O)=O
4. CCOc1ccc2ccc(=O)oc2c1
5. O=C(NCCNCCCNCCNC(=O)C(F)(F)F)C(F)(F)F
6. NS(=O)(=O)c1nnc(-c2ccccc2Cl)s1
7. Oc1cc(F)cc(F)c1
8. COc1cc2oc(=O)ccc2cc1[C@@H](O)CC(C)C

Result:
1. 3.75
2. 212
3. 6.9
4. 76.3
5. 104
6. 0.06
7. 11.3
8. 93.1

====

Field pKi: reported value for the protein given by its sequence; entries drawn from several documents.
Target sequence: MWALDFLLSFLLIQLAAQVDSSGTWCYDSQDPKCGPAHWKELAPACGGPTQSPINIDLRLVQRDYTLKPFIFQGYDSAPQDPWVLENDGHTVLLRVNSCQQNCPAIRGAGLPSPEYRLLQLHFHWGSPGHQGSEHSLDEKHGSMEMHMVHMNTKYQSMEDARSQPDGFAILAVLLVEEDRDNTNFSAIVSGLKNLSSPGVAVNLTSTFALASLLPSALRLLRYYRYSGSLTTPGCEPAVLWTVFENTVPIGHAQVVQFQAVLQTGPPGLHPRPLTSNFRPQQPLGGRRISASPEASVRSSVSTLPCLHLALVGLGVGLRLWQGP
Numbers only, as −log10 of the molar value.

Worked cases, answers included:
* COC(=O)c1cc2cc(CO)ccc2oc1=O | 5.13
* O=c1ccc2cc(CO)ccc2o1 | 5.13
* NCCNCCN | 3.98
* NS(=O)(=O)c1ccc(CO)cc1 | 5.34

Hi team, please reply with pKi for each item in this list.
1. CCOC(=O)c1cc2ccc(OC)cc2oc1=O
2. COc1ccc2oc(=O)c(C(=O)O)cc2c1
3. NCCNCCNCCN
4. NS(=O)(=O)c1ccc(S(=O)(=O)Nc2cccc3c(Cl)c[nH]c23)cc1

Result:
5.18
5.14
4.23
7.14
